# subjectOfTest: Ubiquitin carboxyl-terminal hydrolase 1/WD repeat-containing protein 48 (Homo sapiens, UniProt O94782+Q8TAF3)
# Sequence (O94782 whole entry): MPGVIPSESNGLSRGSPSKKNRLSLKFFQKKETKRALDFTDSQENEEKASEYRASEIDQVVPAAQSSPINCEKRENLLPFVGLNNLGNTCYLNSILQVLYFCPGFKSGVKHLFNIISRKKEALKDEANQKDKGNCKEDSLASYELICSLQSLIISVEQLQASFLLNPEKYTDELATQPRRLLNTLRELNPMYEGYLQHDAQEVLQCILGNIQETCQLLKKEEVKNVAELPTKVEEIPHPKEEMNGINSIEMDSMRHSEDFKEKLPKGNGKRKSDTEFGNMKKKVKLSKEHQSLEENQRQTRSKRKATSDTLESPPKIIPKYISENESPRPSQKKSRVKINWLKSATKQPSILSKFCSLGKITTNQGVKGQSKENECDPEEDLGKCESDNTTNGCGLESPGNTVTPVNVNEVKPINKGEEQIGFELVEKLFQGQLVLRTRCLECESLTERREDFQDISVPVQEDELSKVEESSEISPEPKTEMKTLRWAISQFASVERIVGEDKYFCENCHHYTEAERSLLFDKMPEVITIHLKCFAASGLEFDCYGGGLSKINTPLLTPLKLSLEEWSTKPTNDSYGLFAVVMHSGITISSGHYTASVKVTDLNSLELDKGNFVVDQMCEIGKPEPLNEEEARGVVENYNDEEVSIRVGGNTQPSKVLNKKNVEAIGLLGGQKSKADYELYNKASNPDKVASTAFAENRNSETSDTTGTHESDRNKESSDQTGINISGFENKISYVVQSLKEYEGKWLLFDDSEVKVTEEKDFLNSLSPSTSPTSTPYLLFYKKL
# Sequence (Q8TAF3 whole entry): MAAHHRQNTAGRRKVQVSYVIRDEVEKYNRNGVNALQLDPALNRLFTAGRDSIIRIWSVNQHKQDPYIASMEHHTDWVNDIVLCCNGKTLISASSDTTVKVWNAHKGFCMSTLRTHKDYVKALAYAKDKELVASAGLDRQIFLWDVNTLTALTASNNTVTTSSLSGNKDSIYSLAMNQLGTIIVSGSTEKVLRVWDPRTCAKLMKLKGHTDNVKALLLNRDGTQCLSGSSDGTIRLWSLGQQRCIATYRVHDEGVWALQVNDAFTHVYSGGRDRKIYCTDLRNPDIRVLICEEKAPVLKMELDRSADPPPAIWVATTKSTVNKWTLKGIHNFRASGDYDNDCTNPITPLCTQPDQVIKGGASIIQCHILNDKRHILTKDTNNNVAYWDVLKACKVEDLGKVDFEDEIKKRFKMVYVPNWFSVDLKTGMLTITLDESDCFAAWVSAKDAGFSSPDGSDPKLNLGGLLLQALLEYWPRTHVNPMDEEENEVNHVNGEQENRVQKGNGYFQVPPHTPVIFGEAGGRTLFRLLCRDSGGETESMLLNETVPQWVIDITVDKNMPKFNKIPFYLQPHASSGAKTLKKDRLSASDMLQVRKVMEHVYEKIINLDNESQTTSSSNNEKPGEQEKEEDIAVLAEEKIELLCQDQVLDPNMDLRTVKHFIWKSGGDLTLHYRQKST
# measurementProtocol: In Vitro USP1  Inhibitory Activity
quantityMeasured: IC50 (nM)

smiles | IC50 (nM)
COc1ncnc(C2CC2)c1-c1ncc2c(n1)N(CC1CCN(c3nc(C(F)(F)F)cn3C)CC1)CCO2 | 91.5

I: Cc1noc(C(C)C)c1-c1ncc(OC(F)F)c(NCc2ccc(-c3nc(C(F)(F)F)cn3C)cc2)n1
II: COc1cnc(-c2ccccc2C(C)C)nc1N(C)Cc1ccc(-c2nc(C(F)(F)F)cn2C)cc1
input: Compare I and II by numeric IC50 and name the larger one. Which one? Tell me its label.
output: I

###

# subjectOfTest: Ubiquitin carboxyl-terminal hydrolase 1/WD repeat-containing protein 48 (Homo sapiens, UniProt O94782+Q8TAF3)
# measurementProtocol: In Vitro USP1  Inhibitory Activity
pIC50: −log10 of the molar value.
quantityMeasured: pIC50

compound | pIC50
CC(C)c1ccccc1-c1ncc(C(F)(F)F)c(NCC2CCN(c3ccccn3)CC2)n1 | 7.52
COc1cnc(-c2ccccc2C(C)C)nc1N(C)CC1CCC(c2ccccn2)CC1 (centres undefined) | 7.96
COc1ncnc(C2CC2)c1-c1ncc(Cl)c(NCc2ccc(-c3nc(C(F)(F)F)cn3C3CC3)cc2)n1 | 8.51
COc1cnc(-c2c(OC)cnn2C(C)C)nc1NCc1ccc(-c2ccccn2)cc1 | 6.96
CC(C)c1ccccc1-c1ncc(N2CCOCC2)c(NCc2ccc(-c3nc(C(F)(F)F)cn3C)cc2)n1 | 8.21
COc1cnc(-c2cncnc2C2CC2)nc1N(C)Cc1ccc(-c2nc(C(F)(F)F)cn2C)cc1 | 7.06

P: COc1cnc(-c2ccccc2C(C)C)nc1NCC1CCN(c2nc(C(F)(F)F)cn2C)CC1
Q: COc1cnc(-c2c(OC)cnn2C(C)C)nc1NCC1CCN(c2nc(C(F)(F)F)cn2C)CC1
input: Compare P and Q by numeric pIC50 and name the larger one. Which one? Tell me its label.
output: P

a: COc1cnc(-c2c(OC)ncnc2C2CC2)nc1N(C)CC12C3C4C1C1C2C3C41c1nc(C(F)(F)F)cn1C (centres undefined)
b: COc1cnc(-c2c(OC)cnn2C2CC2)nc1NCc1ccc(-c2ccccn2)cc1
c: COc1cnc(-c2c(OC)ncnc2C2CC2)nc1NCC1CCN(c2nc(C(F)(F)F)cn2C)CC1
input: Please put the entries in order of rising pIC50. List the labels, following the order given in the request.
output: b, c, a

###

# subjectOfTest: Ubiquitin carboxyl-terminal hydrolase 1/WD repeat-containing protein 48 (Homo sapiens, UniProt O94782+Q8TAF3)
# measurementProtocol: In Vitro USP1  Inhibitory Activity
pIC50: −log10 of the molar value.
quantityMeasured: pIC50

compound | pIC50
COc1cnc(-c2ccccc2C(C)C)nc1NCC1CCC(c2ccccn2)CC1 (configuration not stated) | 8.48
COc1cnc(-c2cccnc2C2CC2)nc1NCc1ccc(-n2nc(C(F)(F)F)cc2C)cc1 | 8.21
[2H]C([2H])([2H])N(Cc1ccc(-c2nc(C(F)(F)F)cn2C2CC2)cc1)c1nc(-c2c(OC)ncnc2C2CC2)ncc1F | 8.59

a: COc1cnc(-c2c(C)ncn2C(C)C)nc1NCc1ccc(-c2nc(C(F)(F)F)cn2C)cc1
b: C#Cc1cnc(-c2c(OC)ncnc2C2CC2)nc1NCc1ccc(-c2nc(C(F)(F)F)cn2C)cc1
c: COc1cnc(-c2ccccc2C(C)C)nc1NCc1ccc(-c2ccccn2)cc1
d: COc1cnc(-c2c(OC)ncnc2C2CC2)nc1N(C)Cc1ccc(-c2nc(C(F)(F)F)cn2C(C)C)cc1
input: Ranking field: pIC50; order: falling. List the labels, following the order given in the request.
output: d, c, b, a

###

# subjectOfTest: Ubiquitin carboxyl-terminal hydrolase 1/WD repeat-containing protein 48 (Homo sapiens, UniProt O94782+Q8TAF3)
# measurementProtocol: In Vitro USP1  Inhibitory Activity
pIC50: −log10 of the molar value.
quantityMeasured: pIC50

a: COc1cc(-c2nc(C(F)(F)F)cn2C)ccc1CNc1nc(-c2c(OC)ncnc2C2CC2)ncc1OC
b: COc1cnc(-c2ccccc2C2CC2)nc1NCc1ccc(-c2nc(C(F)(F)F)cn2C)cc1
input: Compare a and b by numeric pIC50 and name the larger one. Which one? Tell me its label.
output: b
(b: 9.10, a: 8.39)

a: COc1cnc(-c2c(Cl)cnn2C2CC2)nc1N(C)Cc1ccc(-c2nc(C(F)(F)F)cn2C)cc1
b: CC(C)Oc1cnc(-c2ccccc2C(C)C)nc1N(C)CC1CCN(c2nc(C(F)(F)F)cn2C)CC1
c: Cc1ncn(C(C)C)c1-c1nc(NCC23CCC(c4ccc(C(F)(F)F)cn4)(CC2)CC3)c2occc2n1
d: COc1ncnc(C2CC2)c1-c1ncc(OC(C)C)c(NCc2ccc(-c3nc(C(F)(F)F)cn3C)cc2)n1
e: COc1cnc(-c2c(OC)ncnc2C2CC2)nc1N(Cc1ccc(-c2nc(C(F)(F)F)cn2C)cc1)C1CCOC1 (configuration not stated)
input: Please put the entries in order of rising pIC50. List the labels, following the order given in the request.
output: c, e, b, d, a

P: CC(C)Oc1cnc(-c2ccccc2C(C)C)nc1NCc1ccc(-c2nc(C(F)(F)F)cn2C)cc1
Q: COc1cnc(-c2c(OC)ncnc2C2CC2)nc1N(Cc1ccc(-c2nc(C(F)(F)F)cn2C)cc1)C1CC1
input: Compare P and Q by numeric pIC50 and name the larger one. Which one? Tell me its label.
output: P
(P: 8.44, Q: 8.02)

1: COc1cnc(-c2c(Cl)cnn2C2CC2)nc1NCc1ccc(-c2nc(C(F)(F)F)cn2C)cc1
2: COc1cnc(-c2c(OC)ncnc2C2CC2)nc1NCC12CCC(c3nc(C(F)(F)F)cn3C)(CC1)CC2
3: COc1cnc(-c2c(OC)ncnc2C2CC2)nc1N(C)Cc1ccc(-c2ccccn2)cc1
input: Ranking field: pIC50; order: falling. List the labels, following the order given in the request.
output: 1, 2, 3
(1: 8.42, 2: 8.06, 3: 7.62)

a: CC(C)c1ccccc1-c1ncc(C(F)(F)F)c(NCC2CCN(c3nc(C(F)(F)F)cn3C)CC2)n1 [US20250289799, Example 25]
b: COc1ncnc(C2CC2)c1-c1ncc(Cl)c(NCc2ccc(-c3nc(C(F)(F)F)cn3C)cc2)n1
input: Returns: the label, a or b , whose recorded pIC50 is the lower number. Which one? Tell me its label.
output: b

a: COc1cc(-c2nc(C(F)(F)F)cn2C)ccc1CNc1nc(-c2ccccc2C(C)C)nc2ccoc12
b: COc1cc(CNc2nc(-c3c(OC)ncnc3C3CC3)nc3ccoc23)ccc1-c1nc(C(F)(F)F)cn1C
c: C#Cc1cnc(-c2ccccc2C(C)C)nc1NCc1ccc(-c2nc(C(F)(F)F)cn2C)cc1
input: Ranking field: pIC50; order: falling. List the labels, following the order given in the request.
output: c, a, b

P: COc1cnc(-c2c(OC)ncnc2C2CC2)nc1N(C#N)Cc1ccc(-c2nc(C(F)(F)F)cn2C)cc1
Q: COc1cnc(-c2ccccc2C(C)C)nc1NCc1ccc(-c2ccc(C)cn2)cc1
R: COc1cnc(-c2c(OC)ncnc2C2CC2)nc1NCc1ccc(-c2nc(C(F)(F)F)cn2CF)cc1
S: COc1ncnc(C2CC2)c1-c1nc(NCc2ccc3c(c2)CCN(C(C)C)C3=O)c2occc2n1
T: Cc1cc(C(F)(F)F)nn1-c1ccc(CNc2nc(-c3c(Cl)cnn3C(C)C)nc3ccoc23)cc1
input: Please put the entries in order of rising pIC50. List the labels, following the order given in the request.
output: S, R, Q, P, T

I: COc1cnc(-c2cccnc2C2CC2)nc1NCc1ccc(-c2nc(C(F)(F)F)cn2C)cc1
II: CC(C)Oc1cnc(-c2ccccc2C(C)C)nc1NCC1CCN(c2nc(C(F)(F)F)cn2C)CC1
III: COc1cnc(-c2cncnc2C2CC2)nc1NCc1ccc(-c2nc(C(F)F)cn2C)cc1
input: Please put the entries in order of rising pIC50. List the labels, following the order given in the request.
output: III, II, I
(III: 6.61, II: 8.21, I: 8.47)

1: COc1cc(-c2nc(C(F)(F)F)cn2C)ccc1CNc1nc(-c2ccccc2C2CC2)nc2ccoc12
2: CC(C)c1ccccc1-c1nc(NCc2ccc(-c3nc(C(F)(F)F)cn3C)cc2)c2ncccc2n1
input: Returns: the label, 1 or 2 , whose recorded pIC50 is the lower number. Which one? Tell me its label.
output: 1

###

# subjectOfTest: Ubiquitin carboxyl-terminal hydrolase 1/WD repeat-containing protein 48 (Homo sapiens, UniProt O94782+Q8TAF3)
# measurementProtocol: In Vitro USP1  Inhibitory Activity
pIC50: −log10 of the molar value.
quantityMeasured: pIC50

compound | experimentalValue
COC1CC(Oc2ccc(CNc3nc(-c4ccccc4C(C)C)nc4ccoc34)cc2)C1 (centres undefined) | 7.59

P: CC(C)n1ncc(Cl)c1-c1nc(NCc2ccc(-c3ccccn3)cc2)c2occc2n1
Q: COc1cc(CNc2nc(-c3c(OC)ncnc3C3CC3)ncc2OC)ccc1-c1nc(C(F)(F)F)cn1C
R: CC(C)c1ccccc1-c1ncc(C(F)(F)F)c(NCc2ccc(-c3nc(C(F)(F)F)cn3C)cc2)n1
input: Please put the entries in order of rising pIC50. List the labels, following the order given in the request.
output: Q, R, P
(Q: 7.82, R: 8.41, P: 8.68)

Data origin, for the record: BindingDB's records for patent US20250289799
